Assay: Inhibition of beta-haematin complex formation after 60 mins by spectrophotometry relative to chloroquine
Format: physicochemical
ENDPOINT LABEL: log10(IC50) (log10 of the value in equiv)
Values reflect log10 of reported IC50 (equiv).

• O=c1cc(CNCCNc2ccnc3cc(Cl)ccc23)n(C2CC2)cc1OCc1ccccc1 = -0.25
• O=c1cc(CNCCCCCCNc2ccnc3cc(Cl)ccc23)n(C2CC2)cc1OCc1ccccc1 = -1.15
• CN(CCCNc1ccnc2cc(Cl)ccc12)Cc1cc(=O)c(O)cn1C = 0.29
• Cn1cc(OCc2ccccc2)c(=O)cc1CNCCCCCCNc1ccnc2cc(Cl)ccc12 = -0.29
• O=c1cc(CNCCCCNc2ccnc3cc(Cl)ccc23)n(C2CC2)cc1O = 0.41

State its log10(IC50): `O=c1cc(CNCCCCCCNc2ccnc3cc(Cl)ccc23)n(C2CC2)cc1O` 0.14

----------
Experiment: Inhibition of beta-haematin complex formation after 60 mins by spectrophotometry relative to chloroquine
Assay type: physicochemical
ENDPOINT LABEL: IC50 (equiv)
Quick reminder: number only, in equiv, skip the unit.

Below, 3 compounds whose answers are already recorded.
• Cn1cc(O)c(=O)cc1CNCCNc1ccnc2cc(Cl)ccc12 = 0.63
• CN(CCCNc1ccnc2cc(Cl)ccc12)Cc1cc(=O)c(OCc2ccccc2)cn1C = 1.98
• Cn1cc(O)c(=O)cc1CNCCCCCCNc1ccnc2cc(Cl)ccc12 = 0.7

Consider the additional compound presented here.
State its IC50: `O=c1cc(CNCCCNc2ccnc3cc(Cl)ccc23)n(C2CC2)cc1O` 2.62

----------
Assay: Inhibition of beta-haematin complex formation after 60 mins by spectrophotometry relative to chloroquine
Format: physicochemical
ENDPOINT LABEL: IC50 (equiv)
Quick reminder: number only, in equiv, skip the unit.

Below, 4 compounds whose answers are already recorded.
- Cn1cc(OCc2ccccc2)c(=O)cc1CNCCCCNc1ccnc2cc(Cl)ccc12: 0.42
- Cn1cc(OCc2ccccc2)c(=O)cc1CNCCCNc1ccnc2cc(Cl)ccc12: 1.3
- O=c1cc(CNCCCNc2ccnc3cc(Cl)ccc23)n(C2CC2)cc1OCc1ccccc1: 0.22
- O=c1cc(CNCCCCNc2ccnc3cc(Cl)ccc23)n(C2CC2)cc1OCc1ccccc1: 0.82

Consider the additional compound presented here.
State its IC50: `Cn1cc(O)c(=O)cc1CNCCCNc1ccnc2cc(Cl)ccc12` 6.12

----------
Quick list: IC50 per entry.
Experiment: Inhibition of beta-haematin complex formation after 60 mins by spectrophotometry relative to chloroquine
Format: physicochemical

• O=c1cc(CNCCNc2ccnc3cc(Cl)ccc23)n(C2CC2)cc1O = 1.41 equiv

State its IC50: CCN(CC)CCCC(C)Nc1ccnc2cc(Cl)ccc12 (centres undefined) 1.9 equiv

State its IC50: `CN(CCCNc1ccnc2cc(Cl)ccc12)Cc1cc(=O)c(O)cn1C1CC1` 5.24 equiv

State its IC50: `Cn1cc(OCc2ccccc2)c(=O)cc1CNCCNc1ccnc2cc(Cl)ccc12` 1.27 equiv
